Values were extracted from PubChem BioAssay AID1974.

molecular target: Glutathione S-transferase omega-1 (Homo sapiens); assay: inhibitors of recombinant GSTO1, primary screen, counter-screen for RBBP9 inhibitor project, biochemical, fluorescence polarization (AID 1974); conditions: recombinant GSTO1, activity-based probe fluorescence polarization; at 5.96 µM;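 note: 0% = GSTO1-1 with DMSO and 100% = wells lacking GSTO1-1 enzyme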
The campaign covered roughly 300,000 compounds. About 3,200 (1.1%) were called active.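 Rule for the calls: active = inhibition above the campaign mean inhibition plus 3 SD (cut at about 35% in these data); inactive = the rest.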 This excerpt belongs to a sample that is enriched for actives.
Your response should consist of one outcome taken from 1 (yes) = active, 0 (no) = inactive

In this assay, the call recorded for O=C(CCn1c(SCC(=O)c2ccccc2)nc2ccccc2c1=O)NCc1ccc(F)cc1 was what?
1 (yes)

In this assay, the call recorded for Cc1[nH][nH]c(=O)c1C(c1ccc(-c2ccc(Cl)cc2)o1)c1c(C)[nH][nH]c1=O was what?
1 (yes)

In this assay, the call recorded for CCOC(=O)c1c(NC(=O)c2ccc(S(=O)(=O)N(C)CC3CCCO3)cc2)sc2c1CC(C)(C)NC2(C)C (configuration not stated) was what?
1 (yes)

In this assay, the call recorded for O=C1C(Cl)=C(N2CCOCC2)C(=O)N1c1ccccc1 was what?
0 (no)
